# credit: patent US20250074892A1

# method: Rat PK&BBB (pharmacokinetics and brain penetration)
# Assay type: in vivo, SD rats
# measurement-context: Sprague-Dawley, rat, whole blood, iv, 3 mg/kg, IV 3 mg/kg, 0.5 hr, read-out: Blood drug concentration
measured-endpoint: concentration at 0.5 h (ng/mL)
Please reply with the bare figure in ng/mL and do not write the unit itself.

concentration at 0.5 h recorded for this compound, O=C(C1CCN(c2cc(-c3cc(OCCCO)ccc3F)ccn2)CC1)N1N=CCC1c1cc(F)cc(F)c1 (racemic) , is 275

Reported concentration at 0.5 h of O=C(C1CCN(c2cc(-c3cc(OCCCO)ccc3F)ccn2)CC1)N1N=CC[C@H]1c1cc(F)cc(F)c1 (racemic) : 295

# concentration at 0.5 h of CC(C)(O)COc1ccc(F)c(-c2ccnc(N3CCC(C(=O)N4N=CC[C@H]4c4cc(F)cc(F)c4)CC3)c2)c1 (racemic) = 445
